Test system: RXF 393
Assay: NCI tumour cell line growth inhibition, 48 h
Active and inactive are the calls of the source. Cut-off read from the data, not from the text of the source: active = GI50 up to about 1.1 µM and inactive = higher.
assay.readout: GI50

Examples with answers:
{"compound": "Clc1cc2ncn(C3CCCCO3)c2cc1Cl (stereo unspecified)", "GI50": "44.7 µM (inactive)"}
{"compound": "O=C1C=C2CO[C@H]3OC[C@H](O)[C@@H]1[C@@H]23", "GI50": "19.9 µM (inactive)"}
{"compound": "O=C(CSCC(=O)N/N=C\\c1ccccc1F)N/N=C\\c1ccccc1F", "GI50": "> 100 µM (inactive)"}
{"compound": "C=C(CO)C(=O)OC1CC(=C)C2CC(O)C(C)C2C2OC(=O)C(=C)C12 (stereo unspecified)", "GI50": "20 µM (inactive)"}

Reported GI50 for NC(=O)C(=CNC(=S)Nc1ccccc1)C(N)=O was > 100 µM (inactive)

For COc1ccc(-c2cc(O)c3cc4c(cc3n2)OCO4)cc1 the compound record lists GI50 as 38.4 µM (inactive)

----------
Test system: NCI-H522
Assay: NCI tumour cell line growth inhibition, 48 h
Activity calls are given as the source filed them. Cut-off read from the data, not from the text of the source: active = GI50 up to about 1.1 µM and inactive = higher.
Known GI50 of a selection of molecules

Completed entries (count: 8):
{"molecule": "O=C1C=C(Br)C(=O)C(Br)=C1", "GI50": "67.5 µM (inactive)"}
{"molecule": "c1ccc(CCN2CCN=C2Cc2ccccc2)cc1", "GI50": "> 100 µM (inactive)"}
{"molecule": "C#CCn1ncc2c(SC)ncnc21", "GI50": "> 100 µM (inactive)"}
{"molecule": "CS/C(N)=N/c1cccc2ccccc12", "GI50": "> 10 µM (inactive)"}
{"molecule": "CCn1c2ccccc2c(=O)c2c(OC)ccc(OC)c21", "GI50": "20.6 µM (inactive)"}
{"molecule": "C=C1[C@H]2O[C@H]2[C@@H](OC(C)=O)[C@@]2(C)[C@@H](OC(C)=O)C[C@@H](OC(=O)CCC)[C@@](C)(O)[C@@H]2[C@@H](OC(C)=O)[C@]2(O)[C@@H](C)C(=O)O[C@H]2[C@H]1Cl", "GI50": "> 100 µM (inactive)"}
{"molecule": "O=C1Nc2ccccc2/C1=N/Nc1nc(-c2ccc(Br)cc2)cs1", "GI50": "25.9 µM (inactive)"}
{"molecule": "COc1cc2c(cc1OC)[C@H]1CN3CCC[C@H]3C=C1c1ccc(OC)c(O)c1-2", "GI50": "0.000487 µM (active)"}

GI50 in this record for COC(=O)/C(=C/CC(N=C(c1ccccc1)c1ccccc1)C(=O)OC)N=C(c1ccccc1)c1ccccc1 (configuration not stated) : 38.5 µM (inactive)

For reference, reported GI50 for COC1CC2CCC(C)[C@](O)(O2)C(=O)C(=O)N2CCCCC2C(=O)OC(C(C)CC2CCC(O)C(OC)C2)CC(=O)C(C)C=C(C)C(OC(=O)CN(C)C)C(OC)C(=O)C(C)CC(C)/C=C/C=C/C=C\1C (some centres not stated) stands at 3.94 µM (inactive)

GI50 for OCCCCn1cc(Cn2ncc3c(NCc4ccccc4)ncnc32)nn1 is > 100 µM (inactive)

Record summary for Nc1nc(N)c(N=Nc2ccc([As](=O)(O)O)c(O)c2)c(N)n1 : reported GI50 = 3.5 µM (inactive)

----------
Tested on: HOP-18
Assay: NCI tumour cell line growth inhibition, 48 h
Activity calls are given as the source filed them. Cut-off read from the data, not from the text of the source: active = GI50 up to about 1.1 µM and inactive = higher.
# maps each entry to its GI50

Please review the entries below; each comes with its answer.
{"compound": "CCC1=CCN(c2cc(C)ccn2)OC1c1ccccc1 (stereo unspecified)", "GI50": "> 100 µM (inactive)"}
{"compound": "CCOC(=O)c1cc(/C=C/C(C)=C/C(=O)OC)oc1-c1ccccc1", "GI50": "42.9 µM (inactive)"}
{"compound": "CC#CC1C(OC(=O)c2ccccc2)CCCC1(CI)N=[N+]=[N-] (stereo unspecified)", "GI50": "> 100 µM (inactive)"}
{"compound": "COc1cc(/C=C\\c2ccccc2)cc(OC)c1OC", "GI50": "> 36.8 µM (inactive)"}

Record CN1c2c(O)nc(N)nc2NCC1CCNc1ccc(C(=O)NC(CCC(=O)O)C(=O)O)cc1 (stereo unspecified) . Reported GI50: 1550 µM (inactive)

// GI50 lookup, compound = COc1ccc(/C(=N/NC(=O)NN)C(c2ccc(OC)cc2)C2(O)CNc3c(Cl)cc(Cl)cc32)cc1 (stereo unspecified) , result: 53.2 µM (inactive)

# GI50 of C=CC[P@@]1(=O)O[C@H](c2ccccc2)C(C)N1C(C)C (stereo partly specified) = > 100 µM (inactive)

Just so you know, measured GI50 for CC1(C)C(=O)OC(n2cc(F)c(=O)[nH]c2=O)C1=O (stereo unspecified) came out at > 100 µM (inactive)

Consider CN1CCC(C(=O)NNc2ccccc2)CC1 . Its measured GI50 is > 61.5 µM (inactive)

response.value for CCOC(=O)c1c(C)c(C)n2c1NC(=O)C2 (field: GI50) = > 100 µM (inactive)

// recorded GI50 for CO/N=C/c1cc(OC)c(OC)c(OC)c1 : > 100 µM (inactive)
